# MEASUREMENT_TARGET: T1, hFc tagged human LAG3 ECD recombinant protein (human, UniProt P18627 23-450)
# T1 construct: range 23-450; also called biotin labelled hFc tagged human LAG3 ECD; not shown: human IgG Fc tag
# T1 sequence (looked up): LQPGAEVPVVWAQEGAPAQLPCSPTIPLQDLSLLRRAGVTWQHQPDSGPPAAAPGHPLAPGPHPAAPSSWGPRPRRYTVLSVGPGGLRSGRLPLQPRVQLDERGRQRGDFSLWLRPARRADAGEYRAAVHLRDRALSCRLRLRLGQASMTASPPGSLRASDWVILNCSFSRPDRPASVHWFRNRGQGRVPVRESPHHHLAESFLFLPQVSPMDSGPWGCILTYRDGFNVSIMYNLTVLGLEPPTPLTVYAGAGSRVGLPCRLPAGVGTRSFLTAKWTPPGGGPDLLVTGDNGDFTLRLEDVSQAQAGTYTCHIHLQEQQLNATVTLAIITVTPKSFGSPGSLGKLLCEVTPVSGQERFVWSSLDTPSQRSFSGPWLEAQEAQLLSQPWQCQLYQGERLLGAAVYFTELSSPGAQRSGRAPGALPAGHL
# TEST_DETAILS: competitive ELISA: excess competitor, biotin hFc-LAG3 ECD, coated BAP-050
% competition: recorded values
VALUE_TYPE: % competition (%)

Antibody 024 (antibody, V domains shown, mouse hybridoma antibody) VH: EVQLQQSGPELVKPGASVKISCKASGYTFTDYYMNWVKQSHGKRLEWIGDIDPNNGGTSYNQKFKGKATLTVDKSSSSAYMDLRSLTSEDSAVYYCARAGSYYYGSSYVEYFDVWGTGTTVTVSS VL: DIQMTQSPASLSASVGETVTITCRASGNIHNYLAWYQQKQGASPQLLVYNAKTLADGVPSRFSGSGSGTEFSLKINSLQPEDFGNYYCQHFWNTPYTFGGGTKLEIK: -0.5
Antibody 021 (antibody, V domains shown, mouse hybridoma antibody) VH: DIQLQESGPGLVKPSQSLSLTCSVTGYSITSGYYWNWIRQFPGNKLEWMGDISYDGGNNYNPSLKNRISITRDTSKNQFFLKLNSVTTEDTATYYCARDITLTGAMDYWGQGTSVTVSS VL: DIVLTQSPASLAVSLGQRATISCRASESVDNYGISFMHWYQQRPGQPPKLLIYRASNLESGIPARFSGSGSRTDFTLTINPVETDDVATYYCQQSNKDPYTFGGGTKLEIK: 57.1
Antibody 033 (antibody, V domains shown, mouse hybridoma antibody) VH: EVQLQQSGAELVRPGASVKLSCTASDFNIKDDYIHWVKQRPEQGLEWIGWIDLENGDTEYASKFQGKATITADTSSNTAYLQLSSLTSEDTAVYYCTTKGSHWGQGTLVTVSA VL: DVVMTQIPLSLPVSLGDQASISCRSSQSLVYSNGNTYLNWYLQKPGQSPKLLIHKVSNRFSGVPDRFSGSGSGTDFTLKISRVEAEDLGVYFCSQSTHVPYTFGGGTKLEIR: 3.8
